The values you see were collected from ChEMBL document CHEMBL1124456.

target: 5-hydroxytryptamine receptor 1A (Rattus norvegicus)
Sequence (P19327 whole entry): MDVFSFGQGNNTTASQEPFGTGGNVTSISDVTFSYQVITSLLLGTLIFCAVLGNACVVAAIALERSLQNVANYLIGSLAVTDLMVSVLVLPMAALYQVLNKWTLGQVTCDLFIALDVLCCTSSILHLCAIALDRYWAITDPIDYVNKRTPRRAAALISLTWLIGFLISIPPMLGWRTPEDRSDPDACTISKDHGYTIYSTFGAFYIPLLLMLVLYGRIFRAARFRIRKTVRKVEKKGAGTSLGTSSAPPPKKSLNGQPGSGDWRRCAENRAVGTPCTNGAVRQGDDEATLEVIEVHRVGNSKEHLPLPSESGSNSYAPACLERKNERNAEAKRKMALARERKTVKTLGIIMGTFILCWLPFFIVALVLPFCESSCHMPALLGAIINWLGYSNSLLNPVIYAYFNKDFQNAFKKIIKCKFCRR
method: In vitro ability to inhibit [3H]8-OH-DPAT binding to 5-hydroxytryptamine 1A receptor of rat hippocampus and the value ranges from 245 to 736
Format: tissue-based
pKi: −log10 of the molar value.
quantity-name: pKi

| molecule | recorded-result |
| --- | --- |
| Cl.Cl.O=C1C2C3C=CC(C3)C2S(=O)(=O)N1CCCCN1CCN(c2ncccn2)CC1 (stereo unspecified) | 6.36 |

====

target: 5-hydroxytryptamine receptor 1A (Rattus norvegicus, UniProt P19327)
Sequence (P19327 whole entry): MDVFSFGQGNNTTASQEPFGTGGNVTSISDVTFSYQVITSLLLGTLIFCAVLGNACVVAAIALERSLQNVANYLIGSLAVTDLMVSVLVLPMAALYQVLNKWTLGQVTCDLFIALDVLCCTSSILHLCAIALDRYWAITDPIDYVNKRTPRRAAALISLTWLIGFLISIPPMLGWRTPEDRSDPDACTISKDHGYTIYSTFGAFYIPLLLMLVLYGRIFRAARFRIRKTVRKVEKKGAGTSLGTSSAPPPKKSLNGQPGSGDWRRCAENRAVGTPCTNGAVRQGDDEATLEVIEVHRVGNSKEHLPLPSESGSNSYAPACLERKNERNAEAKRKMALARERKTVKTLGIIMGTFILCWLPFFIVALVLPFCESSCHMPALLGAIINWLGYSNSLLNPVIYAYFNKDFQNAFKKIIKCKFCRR
method: In vitro ability to inhibit [3H]8-OH-DPAT binding to 5-hydroxytryptamine 1A receptor of rat hippocampus and the value ranges from 48 to 59
Assay type: tissue-based
quantity-name: Ki (nM)

| compound | recorded-result |
| --- | --- |
| Cl.Cl.O=C1C2C3CCC(C3)C2S(=O)(=O)N1CCCCN1CCN(c2ncccn2)CC1 (stereo unspecified) | 53 |

====

target: 5-hydroxytryptamine receptor 1A (Rattus norvegicus)
method: In vitro ability to inhibit [3H]8-OH-DPAT binding to 5-hydroxytryptamine 1A receptor of rat hippocampus ([…]) from 12 to 17
Type: tissue-based
pKi: −log10 of the molar value.

| compound | pKi |
| --- | --- |
| Cl.O=C1C2C3C=CC(C4CC34)C2S(=O)(=O)N1CCCCN1CCN(c2cncc(Cl)n2)CC1 (stereo unspecified) | 7.85 |

====

target: 5-hydroxytryptamine receptor 1A (Rattus norvegicus, UniProt P19327)
method: In vitro ability to inhibit [3H]8-OH-DPAT binding to 5-hydroxytryptamine 1A receptor of rat hippocampus and the value ranges from 25 - 84
Format: tissue-based
quantity-name: Ki (nM)

| molecule | uom | recorded-result |
| --- | --- | --- |
| Cl.Cl.Cl.O=C1C2C3CCC(C3)C2S(=O)(=O)N1CCCCN1CCN(c2cccc(Cl)c2)CC1 (stereo unspecified) | nM | 45 |

====

target: D(2) dopamine receptor (Rattus norvegicus)
method: Inhibition of [3H]-spiperone binding to dopamine receptor D2 of rat limbic structures at 1 uM.
protocol-conditions: Limbic system
Label Criterion met for high-side inhibition (at or above 3%) and Criterion not met for low-side inhibition (below it).

| molecule | group |
| --- | --- |
| Cl.Cl.O=C1C2C3CCC(O3)C2S(=O)(=O)N1CCCCN1CCN(c2cccc(C(F)(F)F)c2)CC1 (stereo not drawn) | Criterion not met |
| Cl.Cl.O=C1C2C3CCC(O3)C2S(=O)(=O)N1CCCCN1CCN(c2ncccn2)CC1 (stereo not drawn) | Criterion not met |
| Cl.Cn1nnnc1N1CCN(CCCCN2C(=O)c3ccccc3S2(=O)=O)CC1 | Criterion met |
| Cl.Cl.Cl.O=C1C2C3CCC(O3)C2S(=O)(=O)N1CCCCN1CCN(c2cccc(Cl)c2)CC1 (stereo not drawn) | Criterion met |
| Cl.Cl.O=C1c2ccccc2S(=O)(=O)N1CCCCN1CCN(c2cnccn2)CC1 | Criterion met |
| CC1=C(C)CC2C(C1)C(=O)N(CCCCc1ccncc1)S2(=O)=O.Cl (stereo not drawn) | Criterion met |

====

logP values for the compounds below.
method: Partition coefficient (logP)
Format: physicochemical
protocol-conditions: octanol/water

| compound | logP |
| --- | --- |
| Cl.O=C1C2C3CCC(O3)C2S(=O)(=O)N1CCCCN1CCN(c2cncc(Cl)n2)CC1 (centres undefined) | 1.64 |
| Cl.Cl.O=C1C2C3CCC(O3)C2S(=O)(=O)N1CCCCN1CCN(c2cnccn2)CC1 (centres undefined) | 1.14 |
| Cl.Cl.O=C1C2C3C=CC(C4C=CC43)C2S(=O)(=O)N1CCCCN1CCN(c2ncccn2)CC1 (centres undefined) | 1.92 |
| Cl.Cl.O=C1C2C3CCC(C3)C2S(=O)(=O)N1CCCCN1CCN(c2ncccn2)CC1 (centres undefined) | 1.72 |

====

target: 5-hydroxytryptamine receptor 1A (Rattus norvegicus)
method: In vitro ability to inhibit [3H]8-OH-DPAT binding to 5-hydroxytryptamine 1A receptor of rat hippocampus ([…]) from 391-841
Type: tissue-based
pKi: −log10 of the molar value.

| compound | pKi |
| --- | --- |
| Cl.O=C1C2C3CCC(O3)C2S(=O)(=O)N1CCCCN1CCN(c2cncc(Cl)n2)CC1 (stereo unspecified) | 6.26 |

====

target: 5-hydroxytryptamine receptor 1A (Rattus norvegicus) (UniProt P19327)
Sequence (whole entry): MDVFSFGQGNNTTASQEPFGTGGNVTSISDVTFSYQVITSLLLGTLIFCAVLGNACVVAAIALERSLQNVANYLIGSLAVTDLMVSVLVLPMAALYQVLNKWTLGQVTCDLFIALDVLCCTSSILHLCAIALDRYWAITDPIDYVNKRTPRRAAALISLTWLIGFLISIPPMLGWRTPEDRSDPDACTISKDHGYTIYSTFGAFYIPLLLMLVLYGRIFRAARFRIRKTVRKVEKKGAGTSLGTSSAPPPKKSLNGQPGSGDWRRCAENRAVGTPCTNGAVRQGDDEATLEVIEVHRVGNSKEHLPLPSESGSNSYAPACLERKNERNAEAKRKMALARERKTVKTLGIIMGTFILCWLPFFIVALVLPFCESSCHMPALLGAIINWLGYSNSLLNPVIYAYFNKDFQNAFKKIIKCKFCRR
method: In vitro ability to inhibit [3H]8-OH-DPAT binding to 5-hydroxytryptamine 1A receptor of rat hippocampus at 1 uM
Assay type: tissue-based
quantity-name: inhibition (%)

| molecule | recorded-result |
| --- | --- |
| Cl.O=C1[C@H]2C3CCC(O3)[C@H]2S(=O)(=O)N1CCCCc1ccncc1 (stereo not given in full) | 0 |
| Cl.Cl.O=c1c2ccccc2[s+]([O-])n1CCCCN1CCN(c2ncccn2)CC1 (stereo not given) | 43 |
| CC1=C(C)CC2C(C1)C(=O)N(CCCCc1ccncc1)S2(=O)=O.Cl (stereo not given) | 8 |
| Cl.O=C1C2C3C=CC(CC3)C2S(=O)(=O)N1CCCCc1ccncc1 (stereo not given) | 35 |
| Cl.Cl.O=C1C2C3CCC(O3)C2S(=O)(=O)N1CCCCN1CCN(c2cnccn2)CC1 (stereo not given) | 25 |

====

target: 5-hydroxytryptamine receptor 1A (Rattus norvegicus)
method: In vitro ability to inhibit [3H]-8-OH-DPAT binding to 5-hydroxytryptamine 1A receptor of rat hippocampus at 1 uM
Format: tissue-based

| compound | inhibition / % |
| --- | --- |
| CC1CC(=O)N(CCCCN2CCN(c3cncc(Cl)n3)CC2)S(=O)(=O)N1.Cl.Cl.Cl (stereo not given) | 61 |
| Cl.O=C1C2C3CCC(C3)C2S(=O)(=O)N1CCCCN1CCN(c2cncc(Cl)n2)CC1 (stereo not given) | 51 |
| Cl.O=C1[C@@H]2C3CCC(O3)[C@@H]2S(=O)(=O)N1CCCCN1CCN(c2cncc(Cl)n2)CC1 (stereo not given in full) | 54 |
| Cl.O=C1C2C3CCC(CC3)C2S(=O)(=O)N1CCCCC1CCN(c2cncc(Cl)n2)CC1 (stereo not given) | 7 |
| Cl.O=c1c2ccccc2[s+]([O-])n1CCCCN1CCN(c2cncc(Cl)n2)CC1 (stereo not given) | 44 |

====

target: 5-hydroxytryptamine receptor 1A (Rattus norvegicus)
Sequence (P19327 whole entry): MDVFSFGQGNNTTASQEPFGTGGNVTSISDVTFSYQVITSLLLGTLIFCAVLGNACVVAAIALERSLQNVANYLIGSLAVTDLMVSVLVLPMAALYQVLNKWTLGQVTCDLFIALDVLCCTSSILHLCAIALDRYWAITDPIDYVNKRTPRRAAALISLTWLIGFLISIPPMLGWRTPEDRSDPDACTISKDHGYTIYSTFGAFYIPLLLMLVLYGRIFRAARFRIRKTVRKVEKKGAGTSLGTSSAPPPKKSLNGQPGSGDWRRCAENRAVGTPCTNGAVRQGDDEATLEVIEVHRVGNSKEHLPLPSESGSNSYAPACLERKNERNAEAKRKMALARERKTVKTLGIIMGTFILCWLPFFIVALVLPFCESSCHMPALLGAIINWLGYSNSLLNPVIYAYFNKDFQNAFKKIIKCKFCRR
method: In vitro ability to inhibit [3H]8-OH-DPAT binding to 5-HT1A receptor of rat hippocampus and the value ranges from 9 - 12
Format: tissue-based
pKi: −log10 of the molar value.
quantity-name: pKi

| compound | target | quantity-name | recorded-result |
| --- | --- | --- | --- |
| Cl.Cl.O=C1C2C3C=CC(C4C=CC43)C2S(=O)(=O)N1CCCCN1CCN(c2ncccn2)CC1 (stereo unspecified) | 5-hydroxytryptamine receptor 1A (Rattus norvegicus) | pKi | 8.00 |
